Attribution: PubChem BioAssay AID898

tested on: YopH tyrosine phosphatase [Yersinia enterocolitica]; test: inhibition of Yersinia YopH phosphatase – biochemical, fluorescence Ex485/Em525, primary screen (AID 898); conditions: active compounds read high, concentration not given here
Screen size: about 140,000 compounds; about 220 (0.16%) were called active. Shown is part of a subset that was picked to be rich in actives.
endpointLabel: inhibition (%)
The response must be a number in % with no trailing unit.

- COc1ccc(OCC(=O)Nc2cc(C)c(Cl)cc2OC)c([N+](=O)[O-])c1: -16.9

Entry under test: `CCCNC(=O)OC[C@H]1O[C@H](CCO/N=C/[C@@H](NS(=O)(=O)c2ccc(C)cc2)[C@H](C)/C=C/CC(=O)OC)C=C[C@@H]1Oc1ccc(OC)cc1` . Its inhibition was -21.3

Entry under test: COc1ccc(N2C(=O)C(CC(=O)Nc3ccc(F)cc3)N(CCc3cccs3)C2=O)cc1 (stereo not given) . Its inhibition was -4.8

Entry under test: `CC(C)OCCCNC(=O)c1cc(Sc2ccc(F)cc2)nc2ccccc12` . Its inhibition was -10.5

Entry under test: `Cc1ccc(-c2csc(NNC(=O)c3ccccc3)n2)cc1` . Its inhibition was -36.8
